B1: NELF-E aptamer (parent)
chain: CCCAACGACUGCCGAGCGAGAUUACGCUUGAGCGCCCCACUGAGGAUGCCCACGGGCGAUUGGGGCACGG

Variants of: B1
assay.text: HiTS-RAP
condition.summary: with NELF-E (Drosophila)
Rule: Kd below 7 nM gives Criterion met, anything at or above gives Criterion not met.

>>> print(df.to_string())
    variant_designation  qualitative_label
 0            U10G A43C  Criterion not met
 1             A4G U22C      Criterion met
 2             C6G U41A  Criterion not met
 3             A8G C13U      Criterion met
 4            A24G G54U  Criterion not met
 5            U29G G65A      Criterion met
 6             A8G G65U  Criterion not met
 7              A5G A8C  Criterion not met
 8            G14U G64A      Criterion met
 9             A8G U29G      Criterion met
10            G14U G65A      Criterion met
11            G14A U61A  Criterion not met
12            G11U G16U      Criterion met
13                 A67U      Criterion met
14            U23G A67C      Criterion met
15            C13G C37A  Criterion not met
16             A4G C51A  Criterion not met
17            U22G C37A  Criterion not met
18            G11A U22G      Criterion met
19             G7A U41G      Criterion met
20             C6G C50G      Criterion met
21            A24G G63A  Criterion not met
22            A15G A21G      Criterion met
23              G7A A8U  Criterion not met
24            C13U G14U      Criterion met
25            G11U C50U  Criterion not met
26            G55A A67U  Criterion not met
27             A8U U41G      Criterion met
28            C13U U23G      Criterion met
29                 A15U      Criterion met
30            G16U A31U      Criterion met
31            C13G G34A  Criterion not met
32                 G65A      Criterion met
33            U10G G34U      Criterion met
34            C12G U29C      Criterion met
35             G7U C36U  Criterion not met
36             C6G G18A      Criterion met
37            G18A U23G      Criterion met
38            G14A C57U      Criterion met
39            U22G U47A  Criterion not met
40             C6G U10C      Criterion met
41            U10G C33G      Criterion met
42                 C50U  Criterion not met
43             A5U G16A  Criterion not met
44             A4U A59G  Criterion not met
